Target: recombinant Pseudomonas aeruginosa PcrV, full-length (PAO), His-tagged (Pseudomonas aeruginosa)
Experiment: ELISA, PcrV coated on the plate, goat anti-human Fc-AP detection
Catalogue of EC50 readings, one per entry.
Write the number in µg/mL without appending the unit.

BINDER | UNIT_ANNOTATION | EC50
7B2 (antibody, V domains shown, also called optimized anti-PcrV mAb clone 7B2) VH: EVQLLESGGGLVQPGGSLRLSCTASGFTFSDYPMSWVRQAPGKGLDWVSGISESGGSTNYADSVKGRFSTSRDNSKSTLYLDMNSLRAEDTAIYYCAKGRFSTDSSHFFRAVYGMDVWGQGTAVTVSS VL: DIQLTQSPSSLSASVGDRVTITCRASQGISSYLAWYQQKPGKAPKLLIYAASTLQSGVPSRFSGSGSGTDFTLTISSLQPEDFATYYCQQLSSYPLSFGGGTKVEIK | µg/mL | 0.0967
3A11 (antibody, V domains shown, also called optimized anti-PcrV mAb clone 3A11) VH: EVQLLESGGGLVQPGGSLRLSCTASGFTFSSYHMSWVRQAPGKGLDWVSGISESGGSTNYADSVKGRFSTSRDNSKSTLYLDMNSLRAEDTAIYYCAKGRFSQSSSHFFRAVYGMDVWGQGTAVTVSS VL: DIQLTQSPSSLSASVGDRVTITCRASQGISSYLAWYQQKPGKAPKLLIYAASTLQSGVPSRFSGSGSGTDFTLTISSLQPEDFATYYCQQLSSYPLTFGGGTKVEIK | µg/mL | 0.0952
3G3 (antibody, V domains shown, also called optimized anti-PcrV mAb clone 3G3) VH: EVQLLESGGGLVQPGGSLRLSCTASGFTFSDYPMSWVRQAPGKGLDWVSGISESGGSTYDADSVKGRFSTSRDNSKSTLYLDMNSLRAEDTAIYYCAKGRFSASAGHFFRAVYGMDVWGQGTAVTVSS VL: DIQLTQSPSSLSASVGDRVTITCRASQGIRSYLAWYQQKPGKAPKLLIYAASTLQSGVPSRFSGSGSGTDFTLTISSLQPEDFATYYCQQLSSYPLSFGGGTKVEIK | µg/mL | 0.0936

Now, please, on to the next binder.
Which EC50 reading was recorded for the binder 3B12 (antibody, V domains shown, also called optimized anti-PcrV mAb clone 3B12) VH: EVQLLESGGGLVQPGGSLRLSCTASGFTFSSNHMSWVRQAPGKGLDWVSGISESGGSTNYADSVKGRFSTSRDNSKSTLYLDMNSLRAEDTAIYYCAKGRFSDEYGHFFRAVYGMDVWGQGTAVTVSS VL: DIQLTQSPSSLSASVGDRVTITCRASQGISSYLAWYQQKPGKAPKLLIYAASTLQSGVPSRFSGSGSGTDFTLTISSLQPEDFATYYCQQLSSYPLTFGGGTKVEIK ?
0.118
